# procedure-summary: Oral bioavailability
# Format: ADME, organism-based
# test-context: eutheria, in vivo
measurement-kind: bioavailability (%)
Give bare numbers, in %.

Name the reported bioavailability value associated with the compound OC(CCc1ccccc1)CN1CCC2(CC1)OCc1c2ccc2ccccc12 (stereo unspecified)
65

---

Parameter 'readout' = IC50; parameter 'system' = 5-hydroxytryptamine receptor 2A (Homo sapiens).
Sequence (P28223 whole entry): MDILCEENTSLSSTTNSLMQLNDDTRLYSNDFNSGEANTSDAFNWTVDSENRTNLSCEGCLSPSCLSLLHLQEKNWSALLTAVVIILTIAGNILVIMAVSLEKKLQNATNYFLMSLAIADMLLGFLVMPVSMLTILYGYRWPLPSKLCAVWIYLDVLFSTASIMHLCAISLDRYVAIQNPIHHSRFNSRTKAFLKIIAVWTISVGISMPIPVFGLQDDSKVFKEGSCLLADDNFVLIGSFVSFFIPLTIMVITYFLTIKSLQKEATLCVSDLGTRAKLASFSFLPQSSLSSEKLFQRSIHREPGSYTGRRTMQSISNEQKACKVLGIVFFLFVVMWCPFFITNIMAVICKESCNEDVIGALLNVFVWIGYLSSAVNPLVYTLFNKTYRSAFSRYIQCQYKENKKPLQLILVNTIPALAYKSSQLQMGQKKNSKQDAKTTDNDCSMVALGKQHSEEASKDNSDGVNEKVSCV
Numbers only, in nM.

>>> print(df.to_string())
                              sample_smiles                               measured_on  numeric_readout
0  O=C1Cc2cc(CCN3CCN(c4cccc5ccccc45)CC3)ccc2N1  5-hydroxytryptamine receptor 2A (Homo sapiens)               20

GET /values?readout=IC50&system=5-hydroxytryptamine receptor 2A (Homo sapiens)&item= c1ccc2c(N3CCNCC3)cccc2c1
62

---

Consider the following pIC50 values measured on Peroxisome proliferator-activated receptor gamma (Homo sapiens, UniProt P37231).
Answers are plain numbers, as −log10 of the molar value.

>>> print(df.to_string())
                                   molecule                               measured_on  measurement_kind  numeric_readout
0  CC(Cc1ccccc1)(Oc1ccc(Cl)cc1)C(=O)O (configuration not stated)  Peroxisome proliferator-activated receptor gamma (Homo sapiens, UniProt P37231)             pIC50             5.41

GET /values?readout=pIC50&item= Cc1oc(-c2ccccc2)nc1CCOc1ccc(OC(C)(C)C(=O)O)cc1
5.59

---

For each record, write down the corresponding Kd.
# measured-on: Peroxisome proliferator-activated receptor gamma (Homo sapiens, UniProt P37231)
# Sequence (P37231 whole entry): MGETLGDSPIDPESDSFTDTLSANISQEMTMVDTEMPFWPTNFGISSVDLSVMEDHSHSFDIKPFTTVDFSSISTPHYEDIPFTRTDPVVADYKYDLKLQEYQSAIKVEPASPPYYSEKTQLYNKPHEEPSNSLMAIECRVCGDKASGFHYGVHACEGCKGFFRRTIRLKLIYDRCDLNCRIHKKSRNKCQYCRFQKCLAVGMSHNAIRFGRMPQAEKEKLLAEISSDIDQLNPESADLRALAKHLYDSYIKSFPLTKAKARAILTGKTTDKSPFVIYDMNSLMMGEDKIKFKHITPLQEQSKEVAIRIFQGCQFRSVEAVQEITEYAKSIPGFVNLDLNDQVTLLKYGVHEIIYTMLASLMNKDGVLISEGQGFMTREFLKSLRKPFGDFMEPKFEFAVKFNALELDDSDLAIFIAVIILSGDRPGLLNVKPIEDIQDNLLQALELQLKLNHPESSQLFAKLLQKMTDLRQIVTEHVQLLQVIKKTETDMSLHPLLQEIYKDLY
Numbers only, in nM.

Provide each entry's Kd from the list below.
1. CCO[C@@H](Cc1ccc(OCC=C(c2ccccc2)c2ccccc2)cc1)C(=O)O
2. CCO[C@@H](Cc1ccc(OCCn2c3ccccc3c3ccccc32)cc1)C(=O)O
3. CCOC(Cc1ccc(OCCN(C)C2=Nc3ccccc3Sc3ccccc32)cc1)C(=O)O (centres undefined)
4. CCO[C@@H](Cc1ccc(OCC=C(c2ccc(-c3ccccc3)cc2)c2ccc(-c3ccccc3)cc2)cc1)C(=O)O

2700
170
9800
300

---

# measured-on: Polyunsaturated fatty acid 5-lipoxygenase (Homo sapiens)
# Sequence (P09917 whole entry): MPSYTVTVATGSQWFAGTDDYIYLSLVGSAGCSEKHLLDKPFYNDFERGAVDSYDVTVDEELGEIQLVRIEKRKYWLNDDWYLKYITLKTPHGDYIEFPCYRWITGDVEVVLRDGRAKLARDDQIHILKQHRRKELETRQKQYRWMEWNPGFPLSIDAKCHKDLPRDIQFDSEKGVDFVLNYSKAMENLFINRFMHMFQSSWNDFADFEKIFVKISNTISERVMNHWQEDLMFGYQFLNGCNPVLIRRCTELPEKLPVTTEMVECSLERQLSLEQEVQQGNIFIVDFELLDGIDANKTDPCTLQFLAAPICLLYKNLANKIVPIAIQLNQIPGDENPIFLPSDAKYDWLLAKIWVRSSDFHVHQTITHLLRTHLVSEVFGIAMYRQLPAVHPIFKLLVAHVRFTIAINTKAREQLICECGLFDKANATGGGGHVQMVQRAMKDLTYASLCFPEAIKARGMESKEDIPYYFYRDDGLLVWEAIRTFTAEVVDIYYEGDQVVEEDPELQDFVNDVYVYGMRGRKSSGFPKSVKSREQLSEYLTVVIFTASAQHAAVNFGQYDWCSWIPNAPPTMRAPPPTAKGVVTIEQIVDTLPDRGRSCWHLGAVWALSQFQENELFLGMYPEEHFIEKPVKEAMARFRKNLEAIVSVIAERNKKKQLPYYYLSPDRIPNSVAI
measurement-kind: pIC50
Give bare numbers, as −log10 of the molar value.

# count of solved cases: 2
>>> df
                              sample_smiles                               measured_on  numeric_readout
0  Cc1c(O)c(C)c2sc(NCc3ccc(S(N)(=O)=O)cc3)nc2c1C  Polyunsaturated fatty acid 5-lipoxygenase (Homo sapiens)             6.64
1       CNc1nc2c(Cc3cccnc3)c(C)c(O)c(C)c2s1  Polyunsaturated fatty acid 5-lipoxygenase (Homo sapiens)             7.00

// below: pIC50 requested for another compound
Lab request: please report pIC50 under test system Polyunsaturated fatty acid 5-lipoxygenase (Homo sapiens) for CC1(C)Cc2c(-c3ccccc3)c(-c3ccc(Cl)cc3)c(CC(=O)O)n2C1
6.68

---

# measured-on: Peroxisome proliferator-activated receptor delta (Homo sapiens)
# Sequence (Q03181 whole entry): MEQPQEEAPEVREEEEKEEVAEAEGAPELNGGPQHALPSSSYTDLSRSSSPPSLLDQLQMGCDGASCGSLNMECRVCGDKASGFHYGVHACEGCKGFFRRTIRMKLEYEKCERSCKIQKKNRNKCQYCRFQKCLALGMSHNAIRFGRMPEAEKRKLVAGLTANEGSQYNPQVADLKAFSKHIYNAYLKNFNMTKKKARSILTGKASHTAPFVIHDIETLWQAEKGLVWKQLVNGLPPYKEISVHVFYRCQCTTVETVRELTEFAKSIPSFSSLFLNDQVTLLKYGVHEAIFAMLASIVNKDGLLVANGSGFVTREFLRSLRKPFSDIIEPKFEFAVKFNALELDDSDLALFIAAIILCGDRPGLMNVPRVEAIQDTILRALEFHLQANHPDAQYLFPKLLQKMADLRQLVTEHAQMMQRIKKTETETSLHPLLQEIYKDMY
measurement-kind: pKd
Numbers only, as −log10 of the molar value.

Recorded pKd, per entry:
                              sample_smiles  measurement_kind  numeric_readout
0  CCO[C@@H](Cc1ccc(OCC=C(c2ccccc2)c2ccccc2)cc1)C(=O)O               pKd             5.24
1  CCO[C@@H](Cc1ccc(OCC=C(c2ccc(-c3ccccc3)cc2)c2ccc(-c3ccccc3)cc2)cc1)C(=O)O               pKd             6.30

// pKd lookup, key: CCO[C@@H](Cc1ccc(OCCn2c3ccccc3c3ccccc32)cc1)C(=O)O
5.52

---

Dear all, this message contains pKi results, target or system UniProt P14416.
Sequence (P14416 whole entry): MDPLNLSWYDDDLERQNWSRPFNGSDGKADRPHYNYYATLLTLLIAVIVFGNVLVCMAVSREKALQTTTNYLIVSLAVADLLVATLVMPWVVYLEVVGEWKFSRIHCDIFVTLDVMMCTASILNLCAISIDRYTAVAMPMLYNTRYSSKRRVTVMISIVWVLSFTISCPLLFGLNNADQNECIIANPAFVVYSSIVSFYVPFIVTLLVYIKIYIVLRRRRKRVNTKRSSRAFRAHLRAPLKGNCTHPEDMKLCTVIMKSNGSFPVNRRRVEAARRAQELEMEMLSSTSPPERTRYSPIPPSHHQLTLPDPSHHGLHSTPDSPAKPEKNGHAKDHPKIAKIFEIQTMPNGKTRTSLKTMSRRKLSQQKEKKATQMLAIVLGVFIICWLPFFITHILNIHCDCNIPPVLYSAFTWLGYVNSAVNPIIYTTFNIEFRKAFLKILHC
One number for each entry, as −log10 of the molar value.

                                   compound     measured_on  numeric_readout
0  NC(=O)c1ccc2c(c1)CCOC2CCN1CC=C(c2c[nH]c3cc(F)ccc23)CC1 (configuration not stated)  UniProt P14416             8.33

Moving on to the next compound.
Entry C[C@@H]1CN(c2cccc3cc(F)ccc23)CCN1CCC1OCCc2c1sc(C(N)=O)c2Cl (some centres not stated) : reported pKi = ?
6.54

---

# measured-on: Histamine H1 receptor (Homo sapiens, UniProt P35367)
# Sequence (P35367 whole entry): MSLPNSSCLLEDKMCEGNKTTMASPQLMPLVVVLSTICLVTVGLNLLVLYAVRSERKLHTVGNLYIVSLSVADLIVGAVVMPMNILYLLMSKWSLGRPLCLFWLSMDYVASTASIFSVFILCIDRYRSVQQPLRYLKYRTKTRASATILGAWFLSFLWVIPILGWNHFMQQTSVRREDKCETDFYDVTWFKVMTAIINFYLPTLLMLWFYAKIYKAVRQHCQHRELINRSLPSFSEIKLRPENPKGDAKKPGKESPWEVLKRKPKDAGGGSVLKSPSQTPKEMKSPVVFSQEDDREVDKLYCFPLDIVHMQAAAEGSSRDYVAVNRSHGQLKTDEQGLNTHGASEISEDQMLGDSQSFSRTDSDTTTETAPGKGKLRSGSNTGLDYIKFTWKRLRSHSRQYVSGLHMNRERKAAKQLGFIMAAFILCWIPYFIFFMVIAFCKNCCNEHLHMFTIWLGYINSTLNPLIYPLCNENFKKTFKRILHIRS
measurement-kind: pKd
Give bare numbers, as −log10 of the molar value.

Hi! What's the reported pKd for O=C(N[C@H](CN1CCC(OC2c3ccccc3CCc3ccccc32)CC1)C(=O)O)OCc1ccccc1 on Histamine H1 receptor (Homo sapiens, UniProt P35367)?
6.39

---

# measured-on: Sodium-dependent serotonin transporter (Homo sapiens)
# Sequence (P31645 whole entry): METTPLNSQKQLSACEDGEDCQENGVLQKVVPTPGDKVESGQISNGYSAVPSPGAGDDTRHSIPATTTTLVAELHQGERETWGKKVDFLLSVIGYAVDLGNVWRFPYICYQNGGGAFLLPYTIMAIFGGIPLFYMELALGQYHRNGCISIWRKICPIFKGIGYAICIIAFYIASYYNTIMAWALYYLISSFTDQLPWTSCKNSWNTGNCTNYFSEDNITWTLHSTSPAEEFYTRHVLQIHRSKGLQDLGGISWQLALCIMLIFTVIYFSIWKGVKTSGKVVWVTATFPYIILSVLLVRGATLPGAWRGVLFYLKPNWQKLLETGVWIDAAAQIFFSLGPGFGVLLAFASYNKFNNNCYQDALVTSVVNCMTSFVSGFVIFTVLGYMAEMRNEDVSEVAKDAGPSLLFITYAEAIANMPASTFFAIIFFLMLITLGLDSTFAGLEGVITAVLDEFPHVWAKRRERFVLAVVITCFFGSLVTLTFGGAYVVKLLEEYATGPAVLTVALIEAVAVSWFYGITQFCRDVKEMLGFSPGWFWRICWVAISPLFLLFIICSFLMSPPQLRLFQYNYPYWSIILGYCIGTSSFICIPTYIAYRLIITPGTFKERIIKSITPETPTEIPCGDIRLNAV
measurement-kind: pKi
Numbers only, as −log10 of the molar value.

>>> print(df.to_string())
                                   compound                               measured_on  measurement_kind  numeric_readout
0  C1=C(c2c[nH]c3ncccc23)CCN(CCOc2cccc3[nH]ccc23)C1  Sodium-dependent serotonin transporter (Homo sapiens)               pKi             8.82
1  OC(CCc1ccccc1)CN1CCC2(CC1)OCc1c2ccc2ccccc12 (centres undefined)  Sodium-dependent serotonin transporter (Homo sapiens)               pKi             8.00

Consider the compound Fc1cc2c(c(OCCNCCCc3c[nH]c4ccc(F)cc34)c1)OCCC2 and give its measured pKi.
9.30

---

# collection of IC50 values tested on Histamine H1 receptor (Homo sapiens, UniProt P35367)
Answers are plain numbers, in nM.

In [3]: df
Out[3]:
                              sample_smiles  measurement_kind  unit_of_measure  numeric_readout
0  CC(=O)N1CCC(=C2c3ccc(Cl)cc3CCc3cccnc32)CC1              IC50               nM              100

Read the next record carefully.
Consider the compound COc1cc(C(=O)N2CC[C@](CCN3CCC(C(N)=O)(c4ccccc4)CC3)(c3ccc(Cl)c(Cl)c3)C2)cc(OC)c1OC and give its measured IC50.
3
